Provide the recorded CA1 (SAGE tag count) for the entries that follow.
Test system: colorectal tissue transcripts
Assay: SAGE of normal, adenoma and cancer colorectal tissue (transcript tag counts)
Set-up: species or system human
Settings: SAGE library CA1
Answer with a bare number; do not write a unit.

The recorded CA1 (SAGE tag count) for ATGTGCGTGG (chemistry not fully specified) is 7

CCCCCGCGGA (chemistry not fully specified) has a reported CA1 (SAGE tag count) of 4

Value of CA1 (SAGE tag count) reported for the sequence CCTGTGACAG (chemistry not fully specified) is 3

// sample CCCGCCTCTT (chemistry not fully specified) , its CA1 (SAGE tag count) was 16

Memo: GAGCACCGTG (chemistry not fully specified) , reported CA1 (SAGE tag count): 0

Per the records, this sequence ( GGCTGCCTGC (chemistry not fully specified) ) has CA1 (SAGE tag count) equal to 5

Measured CA1 (SAGE tag count), GGATGGCTTA (chemistry not fully specified) : 1

CA1 (SAGE tag count) reading for ATACTCCACT (chemistry not fully specified) : 10

So for GCAGGAGGTG (chemistry not fully specified; the letters are possibly those of the target site) , the logged CA1 (SAGE tag count) turned out to be 0

Entry GCCCAGTGGC (chemistry not fully specified) ; CA1 (SAGE tag count) = 2

Record CGGGAGTCGG (chemistry not fully specified) , field CA1 (SAGE tag count): 9

Value of CA1 (SAGE tag count) reported for the sequence ACACCCATCA (chemistry not fully specified) is 5

// CA1 (SAGE tag count) value for GCCCACACAG (chemistry not fully specified) : 0

// field: CA1 (SAGE tag count); key: GGAACTGTGA (chemistry not fully specified) ; value = 10

The sequence listed as GATGAATCCG (chemistry not fully specified) shows CA1 (SAGE tag count) equal to 1

Record AATAAAGGCT (chemistry not fully specified) , field CA1 (SAGE tag count): 3

The recorded CA1 (SAGE tag count) for ACTGTGGCGG (chemistry not fully specified) is 9

// field: CA1 (SAGE tag count); key: CCCCCTGCAT (chemistry not fully specified) ; value = 0

Lab book: CA1 (SAGE tag count) of CTTATGGTCC (chemistry not fully specified) noted as 1

Entry under test: GTGCACTGAG (chemistry not fully specified) . Its CA1 (SAGE tag count) was 12

Recorded CA1 (SAGE tag count) (sequence ATGGCACGGA (chemistry not fully specified; the letters are possibly those of the target site) ): 3

Entry CTGTGTGGCT (chemistry not fully specified; the letters are possibly those of the target site) , CA1 (SAGE tag count) reported as 0

Value of CA1 (SAGE tag count) reported for the sequence GTGGCGGGAA (chemistry not fully specified) is 4

The value of CA1 (SAGE tag count) measured for the sequence CCGCTGCACT (chemistry not fully specified) turned out to be 37

Value of measured CA1 (SAGE tag count) for the entry GGAGGCCGAG (chemistry not fully specified) : 2

Entry AGTGGGCTCA (chemistry not fully specified) ; CA1 (SAGE tag count) = 0

Query GCCATCCTCC (chemistry not fully specified) yields CA1 (SAGE tag count) of 0

Measured CA1 (SAGE tag count), CTGGCTATCC (chemistry not fully specified) : 0

Input GATGACCCCC (chemistry not fully specified) . Output CA1 (SAGE tag count): 3

The sequence listed as GCCAGACACC (chemistry not fully specified) shows CA1 (SAGE tag count) equal to 1

sequence CCAAAGCTAT (chemistry not fully specified) , CA1 (SAGE tag count) observed: 6

Per the record, ATGCGGAGTC (chemistry not fully specified) has CA1 (SAGE tag count) of 2

CA1 (SAGE tag count) reading for GCAAGAAAGT (chemistry not fully specified) : 0

# CA1 (SAGE tag count) (sequence: GGTGAAGAGG (chemistry not fully specified) ) is 10

For CTGGGCCTCT (chemistry not fully specified) the sequence record lists CA1 (SAGE tag count) as 3

Measured CA1 (SAGE tag count), GCCTGGCCAT (chemistry not fully specified) : 10

Input AAATCTGGCA (chemistry not fully specified) . Output CA1 (SAGE tag count): 2

Lab note: measured CA1 (SAGE tag count) of AGGATGGTCC (chemistry not fully specified; the letters are possibly those of the target site) was 6

Lab book: CA1 (SAGE tag count) of CCAGGGGAGA (chemistry not fully specified) noted as 10

The recorded CA1 (SAGE tag count) for entry AGCAGGAGCA (chemistry not fully specified) equals 7

Measured CA1 (SAGE tag count), GTGCCTGAGA (chemistry not fully specified) : 7

Entry GCCGGGTGGG (chemistry not fully specified) , CA1 (SAGE tag count) reported as 68
